Provide the recorded pKd for the entries that follow.
# target-desc: PI3Kα H1047R protein (p110-α H1047R complexed with truncated p85-α) (Homo sapiens, UniProt P42336, H1047R)
# Construct: The protein contained a full-length p110-α subunit harboring the H1047R mutation
# Sequence (P42336 whole entry H1047R, the tested form may be a part): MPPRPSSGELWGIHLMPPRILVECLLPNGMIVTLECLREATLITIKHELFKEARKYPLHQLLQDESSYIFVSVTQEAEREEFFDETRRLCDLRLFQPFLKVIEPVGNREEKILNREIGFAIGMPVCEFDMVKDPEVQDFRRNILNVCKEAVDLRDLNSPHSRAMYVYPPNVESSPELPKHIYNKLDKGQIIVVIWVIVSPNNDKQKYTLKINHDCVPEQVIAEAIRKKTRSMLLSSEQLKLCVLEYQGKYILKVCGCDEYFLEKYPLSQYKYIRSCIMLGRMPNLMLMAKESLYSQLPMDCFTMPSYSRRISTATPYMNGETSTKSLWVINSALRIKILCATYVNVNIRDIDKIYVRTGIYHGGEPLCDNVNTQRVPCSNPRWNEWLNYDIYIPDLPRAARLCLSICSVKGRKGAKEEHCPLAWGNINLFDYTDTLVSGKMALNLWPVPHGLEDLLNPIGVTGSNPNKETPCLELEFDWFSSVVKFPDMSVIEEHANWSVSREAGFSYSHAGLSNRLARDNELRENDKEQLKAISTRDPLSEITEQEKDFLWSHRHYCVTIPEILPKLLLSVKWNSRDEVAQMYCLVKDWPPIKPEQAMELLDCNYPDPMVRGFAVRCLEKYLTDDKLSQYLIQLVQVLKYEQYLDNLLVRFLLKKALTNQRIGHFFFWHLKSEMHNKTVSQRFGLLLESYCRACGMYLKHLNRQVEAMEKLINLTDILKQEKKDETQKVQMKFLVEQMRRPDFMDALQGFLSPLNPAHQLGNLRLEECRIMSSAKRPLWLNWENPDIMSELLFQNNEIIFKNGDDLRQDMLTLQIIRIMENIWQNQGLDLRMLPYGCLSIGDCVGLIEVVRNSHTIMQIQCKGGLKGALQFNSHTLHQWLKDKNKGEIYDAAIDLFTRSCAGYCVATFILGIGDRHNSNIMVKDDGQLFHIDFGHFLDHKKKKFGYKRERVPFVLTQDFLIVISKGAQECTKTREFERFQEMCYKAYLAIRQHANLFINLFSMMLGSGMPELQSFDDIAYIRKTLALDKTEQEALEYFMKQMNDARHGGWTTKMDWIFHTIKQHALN
# Sequence (P27986 322-694 partner limits assumed): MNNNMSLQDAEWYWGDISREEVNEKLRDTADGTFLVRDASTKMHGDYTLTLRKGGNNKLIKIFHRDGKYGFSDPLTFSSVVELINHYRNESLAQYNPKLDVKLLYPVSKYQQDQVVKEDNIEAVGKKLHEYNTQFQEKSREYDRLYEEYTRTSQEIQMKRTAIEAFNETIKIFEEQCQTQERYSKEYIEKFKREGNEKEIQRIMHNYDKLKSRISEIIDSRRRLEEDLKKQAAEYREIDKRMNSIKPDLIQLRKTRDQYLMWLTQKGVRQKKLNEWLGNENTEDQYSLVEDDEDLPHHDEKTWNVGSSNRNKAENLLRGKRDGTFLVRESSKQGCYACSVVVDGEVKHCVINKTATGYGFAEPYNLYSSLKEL
# method-notes: Surface Plasmon Resonance (SPR) binding, wortmannin-blocked protein
# test-parameters: Biacore 8K, ATP site blocked with 1 μM wortmannin, 25° C.
pKd: −log10 of the molar value.

What the record says about Cc1c([C@@H](NC(=O)Nc2cccc(C(=O)N(C)C)c2)C(C)C)oc2ccc(F)cc12 [Compound 22] : pKd is > 7.00

Cc1c([C@@H](NC(=O)N[C@H]2CCCN(S(C)(=O)=O)C2)C(C)C)oc2ccc(F)cc12 (single isomer, unassigned) [Compound 20] has a reported pKd of 6.60 to 7.00

Field pKd (entry Cc1c([C@@H](NC(=O)N[C@@H]2CCCN(S(C)(=O)=O)C2)C(C)C)oc2ccc(F)cc12 (single isomer, unassigned) [Compound 19] ) reads ≤ 6.30

* * *

# target-desc: PI3Kα H1047R protein (p110-α H1047R complexed with truncated p85-α) (Homo sapiens, UniProt P42336, H1047R)
# Construct: The protein contained a full-length p110-α subunit harboring the H1047R mutation
# method-notes: Surface Plasmon Resonance (SPR) binding, wortmannin-blocked protein
# test-parameters: Biacore 8K, ATP site blocked with 1 μM wortmannin, 25° C.
pKd: −log10 of the molar value.
endpoint-label: pKd

The compound listed as Cc1c([C@@H](NC(=O)N[C@H]2CCC[C@H](C(N)=O)C2)C(C)C)oc2ccc(F)cc12 [Compound 31] has a reported pKd of 6.30 to 6.60

Kindly note the recorded pKd for Cc1c([C@@H](NC(=O)Nc2cccnc2)C2CC2)oc2ccc(F)cc12 [Compound 37] , which is ≤ 6.30

So for Cc1c([C@@H](NC(=O)Nc2ccc(C(=O)N3CC(F)C3)nc2)C(C)C)oc2ccc(F)cc12 [Compound 64] , the logged pKd turned out to be > 7.00

The compound identified as Cc1c([C@@H](NC(=O)Nc2ccc(S(C)(=O)=O)cc2)C2CC2)oc2ccc(F)cc12 [Compound 16] registered its pKd at ≤ 6.30

Record Cc1c([C@@H](NC(=O)Nc2ccc(S(C)(=O)=O)cc2)C(C)C)oc2ccccc12 [Compound 9] , field pKd: 6.30 to 6.60

So, Cc1c([C@@H](NC(=O)N[C@H]2CC[C@H](C(N)=O)CC2)C(C)C)oc2ccc(F)cc12 (relative stereo) [Compound 42] ? Its pKd was ≤ 6.30

Entry under test: Cc1c(C(NC(=O)Nc2cnc(N)nc2)C(F)(F)F)oc2ccc(F)cc12 (racemic) [Compound 68] . Its pKd was > 7.00

// pKd lookup, compound = Cc1c([C@@H](NC(=O)Nc2cnc(N)nc2)C(C)C)oc2c(F)cc(F)cc12 [Compound 75] , result: > 7.00

Notebook: CC(C)C(NC(=O)Nc1cccc(C(N)=O)c1)c1cc2cc(F)ccc2o1 (racemic) [Compound 50] , pKd read as 6.60 to 7.00

Measured pKd of Cc1c([C@@H](NC(=O)Nc2cncc(C(=O)N3CCC3)c2)C(C)C)oc2ccc(F)cc12 [Compound 63] : > 7.00

Attribution: patent US12084434B2
